Record form. Attribute: IC50. Fill in for each entry.
- EXPERIMENTAL_SYSTEM: human MRGPRD (Homo sapiens)
- PROTOCOL_SUMMARY: MRGPRD antagonist activity, IP-One HTRF assay in CHO cells stably expressing human MRGPRD (versus 100 μM β-Alanine agonist)

Endpoint output: IC50 of COc1cc(NC(=O)c2nnn(-c3ccc(-c4ccccc4)cc3)c2C2CC2)c2cn[nH]c2c1 . Value?
> 3000 nM

Endpoint output: IC50 of O=C(Nc1ccncc1)c1nnn(-c2cccc(-c3cnn(CC4CC4)c3)c2)c1C1CC1 . Value?
500 to 1000 nM

Endpoint output: IC50 of Cc1ccc(-n2nnc(C(=O)Nc3ccnc(C)c3)c2C2CC2)c(Cl)c1 . Value?
100 to 500 nM

* * *

Record form. Attribute: pIC50. Fill in for each entry.
- EXPERIMENTAL_SYSTEM: human MRGPRD (Homo sapiens, UniProt Q8TDS7)
- Sequence (Q8TDS7 whole entry): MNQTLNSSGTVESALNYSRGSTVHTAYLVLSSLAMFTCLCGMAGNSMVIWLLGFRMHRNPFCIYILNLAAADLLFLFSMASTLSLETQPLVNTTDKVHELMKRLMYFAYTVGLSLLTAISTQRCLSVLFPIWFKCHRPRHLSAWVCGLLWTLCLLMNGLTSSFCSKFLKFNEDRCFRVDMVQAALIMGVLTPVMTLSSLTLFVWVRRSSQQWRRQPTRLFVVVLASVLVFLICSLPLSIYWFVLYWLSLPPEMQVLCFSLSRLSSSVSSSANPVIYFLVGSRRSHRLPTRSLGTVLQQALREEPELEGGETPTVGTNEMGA
- PROTOCOL_SUMMARY: MRGPRD antagonist activity, IP-One HTRF assay in CHO cells stably expressing human MRGPRD (versus 100 μM β-Alanine agonist)
pIC50: −log10 of the molar value.

Endpoint output: pIC50 of COc1cc(NC(=O)c2nnn(-c3ccc(-c4ccccc4)cc3)c2C2CC2)cc(C)n1 [Compound 14-23] . Value?
6.00 to 6.30

Endpoint output: pIC50 of O=C(NCc1cn[nH]c1)c1nnn(-c2ccc(-c3ccccc3)cc2)c1C1CC1 [Compound 14-36] . Value?
5.52 to 6.00

Endpoint output: pIC50 of CC(=O)c1cccc(-c2ccc(-n3nnc(C(=O)Nc4ccncc4)c3C3CC3)cc2)c1F [Compound 7-85] . Value?
6.30 to 7.00

Endpoint output: pIC50 of O=C(Nc1ccncc1)c1nnn(-c2ccc(-c3ccc(C(F)(F)F)cc3)cc2)c1C1CC1 [Compound 7-66] . Value?
6.30 to 7.00

Endpoint output: pIC50 of Cc1c(-c2ccc(-n3nnc(C(=O)Nc4ccncc4)c3C3CC3)cc2)cnn1C [Compound 7-50] . Value?
6.30 to 7.00

Endpoint output: pIC50 of CC(=O)c1ccc(-c2ccc(-n3nnc(C(=O)Nc4ccncc4)c3C3CC3)cc2)s1 [Compound 7-147] . Value?
6.00 to 6.30

Endpoint output: pIC50 of Cc1ccc(-n2nnc(C(=O)Nc3ccncc3F)c2C2CC2)cc1 [Compound 1-9] . Value?
5.52 to 6.00

Endpoint output: pIC50 of COc1cc(-c2ccccc2)ccc1-n1nnc(C(=O)Nc2ccnc(C)c2)c1C1CC1 [Compound 7-272] . Value?
6.00 to 6.30

Endpoint output: pIC50 of O=C(Nc1ccnc(C(F)(F)F)c1)c1nnn(-c2ccc(-c3ccccc3)cc2)c1C1CC1 [Compound 14-52] . Value?
5.52 to 6.00

* * *

- EXPERIMENTAL_SYSTEM: human MRGPRD (Homo sapiens)
- PROTOCOL_SUMMARY: MRGPRD antagonist activity, IP-One HTRF assay in CHO cells stably expressing human MRGPRD (versus 100 μM β-Alanine agonist)
Record form. Attribute: IC50. Fill in for each entry.

Endpoint output: IC50 of COc1ccc(-c2ccc(-n3nnc(C(=O)Nc4ccncc4)c3C3CC3)cc2)c(C)c1 . Value?
100 to 500 nM

Endpoint output: IC50 of COc1ccc(C2(NC(=O)c3nnn(-c4ccc(-c5c(C)nn6ccccc56)cc4)c3C(C)C)CC2)cn1 . Value?
100 to 500 nM

Endpoint output: IC50 of CC1(NC(=O)c2nnn(-c3ccc(-c4ccccc4)cc3)c2C2CC2)CCOCC1 . Value?
> 3000 nM

Endpoint output: IC50 of O=C(Nc1ccncc1)c1nnn(-c2ccc(-c3ccncc3)cc2)c1C1CC1 . Value?
1000 to 3000 nM

Endpoint output: IC50 of Cn1cc(NC(=O)c2nnn(-c3ccc(-c4ccccc4)cc3)c2C2CC2)cn1 . Value?
> 3000 nM

Endpoint output: IC50 of N#CCc1ccc(-c2ccc(-n3nnc(C(=O)Nc4ccncc4)c3C3CC3)cc2)cc1 . Value?
100 to 500 nM

Endpoint output: IC50 of Cc1cc(-n2nnc(C(=O)Nc3ccncc3)c2C2CC2)ccc1-c1cn(C)nc1C . Value?
500 to 1000 nM

Endpoint output: IC50 of O=C(Nc1ccncc1)c1nnn(-c2cccc(-c3ccccc3)c2)c1C1CC1 . Value?
1000 to 3000 nM

Endpoint output: IC50 of Cc1c(-c2ccc(-n3nnc(C(=O)Nc4ccncc4)c3C3CC3)cc2)cnn1-c1ccccc1 . Value?
100 to 500 nM

Endpoint output: IC50 of CC(C)Oc1cccc(-c2ccc(-n3nnc(C(=O)Nc4ccncc4)c3C3CC3)cc2)c1 . Value?
500 to 1000 nM

Endpoint output: IC50 of O=C(Nc1ccncc1)c1nnn(-c2cccc(-c3cccc(O)c3)c2)c1C1CC1 . Value?
1000 to 3000 nM

* * *

Record form. Attribute: IC50. Fill in for each entry.
- EXPERIMENTAL_SYSTEM: human MRGPRD (Homo sapiens, UniProt Q8TDS7)
- PROTOCOL_SUMMARY: MRGPRD antagonist activity, IP-One HTRF assay in CHO cells stably expressing human MRGPRD (versus 100 μM β-Alanine agonist)

Endpoint output: IC50 of COc1cc(C#N)ccc1-c1ccc(-n2nnc(C(=O)Nc3ccncc3)c2C2CC2)cc1 . Value?
0.1 to 0.5 µM

Endpoint output: IC50 of CCc1ccc(-n2nnc(C(=O)Nc3ccncc3)c2C2CC2)cc1-c1cccc(C(C)=O)c1 . Value?
1 to 3 µM

Endpoint output: IC50 of Cc1cc(NC(=O)c2nnn(-c3cccc(-c4ccn(C5CCCC5)n4)c3)c2C2CC2)ccn1 . Value?
0.1 to 0.5 µM

Endpoint output: IC50 of Cn1nc(-c2ccc(-n3nnc(C(=O)Nc4ccncc4)c3C3CC3)cc2)c2ccccc21 . Value?
1 to 3 µM

Endpoint output: IC50 of O=C(Nc1ccncc1)c1nnn(-c2cccc(-c3ccccc3C(F)(F)F)c2)c1C1CC1 . Value?
1 to 3 µM

Endpoint output: IC50 of O=C(Nc1ccncc1)c1nnn(-c2ccc(-c3cnn(CC(F)(F)F)c3)cc2)c1C1CC1 . Value?
0.5 to 1 µM

* * *

- EXPERIMENTAL_SYSTEM: human MRGPRD (Homo sapiens, UniProt Q8TDS7)
- PROTOCOL_SUMMARY: MRGPRD antagonist activity, IP-One HTRF assay in CHO cells stably expressing human MRGPRD (versus 100 μM β-Alanine agonist)
pIC50: −log10 of the molar value.
EXPERIMENTAL_ENDPOINT: pIC50

Endpoint output: pIC50 of Cc1nn(C)c(C)c1-c1ccc(-n2nnc(C(=O)Nc3ccncc3)c2C2CC2)cc1C(F)(F)F [Compound 7-331] . Value?
< 5.52

Endpoint output: pIC50 of Cc1ccncc1CNC(=O)c1nnn(-c2ccc(-c3c(C)nn(-c4ccccc4)c3C)cc2)c1C1CC1 [Compound 9-26] . Value?
6.00 to 6.30

Endpoint output: pIC50 of COc1ccc(-c2ccc(-n3nnc(C(=O)Nc4ccncc4)c3C3CC3)cc2)cc1F [Compound 7-185] . Value?
5.52 to 6.00

Endpoint output: pIC50 of CC(=O)c1ccccc1-c1ccc(-n2nnc(C(=O)Nc3ccncc3)c2C2CC2)cc1 [Compound 7-134] . Value?
6.00 to 6.30

Endpoint output: pIC50 of Cc1n[nH]c(C)c1-c1ccc(-n2nnc(C(=O)Nc3ccncc3)c2C2CC2)cc1 [Compound 7-102] . Value?
6.30 to 7.00

Endpoint output: pIC50 of N#Cc1ccc(-c2ccc(-n3nnc(C(=O)Nc4ccncc4)c3C3CC3)cc2)cc1 [Compound 7-39] . Value?
6.30 to 7.00

Endpoint output: pIC50 of CC(C)Oc1ccc(-c2ccc(-n3nnc(C(=O)Nc4ccncc4)c3C3CC3)cc2)cc1 [Compound 7-131] . Value?
6.00 to 6.30

Endpoint output: pIC50 of O=C(Nc1ccncc1)c1nnn(-c2cccc(-c3cnn(C4CCC4)c3)c2)c1C1CC1 [Compound 7-243] . Value?
6.00 to 6.30

Endpoint output: pIC50 of O=C(Nc1ccncc1)c1nnn(-c2ccc(-c3ccccc3OC(F)(F)F)cc2)c1C1CC1 [Compound 7-186] . Value?
5.52 to 6.00

Endpoint output: pIC50 of CC(=O)c1ccc(-c2ccc(-n3nnc(C(=O)Nc4ccncc4)c3C3CC3)cc2)cc1C [Compound 7-174] . Value?
5.52 to 6.00

* * *

- EXPERIMENTAL_SYSTEM: human MRGPRD (Homo sapiens, UniProt Q8TDS7)
- PROTOCOL_SUMMARY: MRGPRD antagonist activity, IP-One HTRF assay in CHO cells stably expressing human MRGPRD (versus 100 μM β-Alanine agonist)
- Experimental: Chinese Hamster Ovary (CHO) cells stably expressing human MRGPRD (Eurofins, San Diego CA) were plated in a 384-well plate at 20,000 cells per well in 12 μL of Optimem (Fisher Scientific 11-058-021). Plates were kept in the incubator at 37° C. overnight. […] Assay plates were read on either a Molecular Devices SpectraMax iD5 plate reader or a BMG ClarioStar plate reader. The HTRF ratio was calculated form the raw data and graphed using GraphPad Prism to calculate IC50 values. […]
EXPERIMENTAL_ENDPOINT: IC50

API: value(readout=IC50, system=human MRGPRD (Homo sapiens, UniProt Q8TDS7)) for record Cc1nn(-c2ccccc2)c(C)c1-c1ccc(-n2nnc(C(=O)NCc3ccc(C(C)C)nc3)c2C2CC2)cc1 [Compound 9-15]
100 to 500 nM

API: value(readout=IC50, system=human MRGPRD (Homo sapiens, UniProt Q8TDS7)) for record COc1ccc(-c2cccc(-n3nnc(C(=O)Nc4ccncc4)c3C3CC3)c2)c(OC)c1 [Compound 7-286]
1000 to 3000 nM

API: value(readout=IC50, system=human MRGPRD (Homo sapiens, UniProt Q8TDS7)) for record O=C(Nc1ccncc1)c1nnn(-c2ccc(-c3ccc(CC4CC4)cc3)cc2)c1C1CC1 [Compound 7-149]
500 to 1000 nM

API: value(readout=IC50, system=human MRGPRD (Homo sapiens, UniProt Q8TDS7)) for record O=C(Nc1ccncc1)c1nnn(-c2ccc(-c3cccs3)cc2)c1C1CC1 [Compound 7-152]
500 to 1000 nM

API: value(readout=IC50, system=human MRGPRD (Homo sapiens, UniProt Q8TDS7)) for record Cc1n[nH]c2ncnc(NC(=O)c3nnn(-c4ccc(-c5ccccc5)cc4)c3C3CC3)c12 [Compound 14-25]
500 to 1000 nM

API: value(readout=IC50, system=human MRGPRD (Homo sapiens, UniProt Q8TDS7)) for record Cc1nn(C)c(C)c1-c1ccc(-n2nnc(C(=O)NC3(c4cccnc4)CC3)c2C(C)C)cc1 [Compound 18-23]
100 to 500 nM

API: value(readout=IC50, system=human MRGPRD (Homo sapiens, UniProt Q8TDS7)) for record O=C(Nc1ccncc1)c1nnn(-c2ccc(-c3cccc(OC(F)(F)F)c3)cc2)c1C1CC1 [Compound 7-162]
1000 to 3000 nM

API: value(readout=IC50, system=human MRGPRD (Homo sapiens, UniProt Q8TDS7)) for record CCn1cc(C(C)NC(=O)c2nnn(-c3ccc(-c4ccccc4)cc3)c2C2CC2)cn1 (centres unmarked) [Compound 14-27]
500 to 1000 nM

API: value(readout=IC50, system=human MRGPRD (Homo sapiens, UniProt Q8TDS7)) for record Cc1ccc(CNC(=O)c2nnn(-c3ccc(-c4c(C)nn5ccccc45)cc3)c2C2CC2)cn1 [Compound 17-1]
100 to 500 nM

API: value(readout=IC50, system=human MRGPRD (Homo sapiens, UniProt Q8TDS7)) for record CCc1ccc(-c2cccc(-n3nnc(C(=O)Nc4ccncc4)c3C3CC3)c2)cc1 [Compound 7-284]
500 to 1000 nM

API: value(readout=IC50, system=human MRGPRD (Homo sapiens, UniProt Q8TDS7)) for record CC(NC(=O)c1nnn(-c2ccc(-c3ccc(CC#N)cc3)cc2)c1C1CC1)c1cnn(C)c1 (centres unmarked) [Compound 15-9]
> 3000 nM

API: value(readout=IC50, system=human MRGPRD (Homo sapiens, UniProt Q8TDS7)) for record Cc1ccc(-n2nnc(C(=O)Nc3ccncc3)c2C2CC2)c(F)c1 [Compound 2-2]
500 to 1000 nM

API: value(readout=IC50, system=human MRGPRD (Homo sapiens, UniProt Q8TDS7)) for record Cc1cc(NC(=O)c2nnn(-c3ccc(-c4c(C)nn(C5CCC5)c4C)cc3)c2C2CC2)ccn1 [Compound 8-2]
< 100 nM

API: value(readout=IC50, system=human MRGPRD (Homo sapiens, UniProt Q8TDS7)) for record O=C(Nc1ccncc1)c1nnn(-c2ccc(-c3ccccc3O)cc2)c1C1CC1 [Compound 7-161]
500 to 1000 nM

API: value(readout=IC50, system=human MRGPRD (Homo sapiens, UniProt Q8TDS7)) for record CC(C)n1cc(-c2cccc(-n3nnc(C(=O)Nc4ccncc4)c3C3CC3)c2)cn1 [Compound 7-251]
500 to 1000 nM

API: value(readout=IC50, system=human MRGPRD (Homo sapiens, UniProt Q8TDS7)) for record Cc1ccc(CNC(=O)c2nnn(-c3ccc(-c4ccc(C#N)cc4)cc3)c2C2CC2)cn1 [Compound 15-3]
500 to 1000 nM

API: value(readout=IC50, system=human MRGPRD (Homo sapiens, UniProt Q8TDS7)) for record CCc1ccc(C2(NC(=O)c3nnn(-c4ccc(-c5c(C)nn(C)c5C)cc4)c3C3CC3)CC2)cn1 [Compound 9-33]
1000 to 3000 nM

API: value(readout=IC50, system=human MRGPRD (Homo sapiens, UniProt Q8TDS7)) for record CCn1cc(C2(NC(=O)c3nnn(-c4ccc(-c5ccccc5)cc4)c3C3CC3)CC2)cn1 [Compound 18-12]
1000 to 3000 nM

API: value(readout=IC50, system=human MRGPRD (Homo sapiens, UniProt Q8TDS7)) for record O=C(Nc1ccncc1)c1nnn(-c2ccc(-c3cnoc3)cc2)c1C1CC1 [Compound 7-105]
100 to 500 nM

API: value(readout=IC50, system=human MRGPRD (Homo sapiens, UniProt Q8TDS7)) for record Cc1ccc(-n2nnc(C(=O)Nc3ccnc(C(F)(F)F)c3)c2C(C)C)cc1 [Compound 24-1]
1000 to 3000 nM

API: value(readout=IC50, system=human MRGPRD (Homo sapiens, UniProt Q8TDS7)) for record Cc1ccc(-c2cccc(-n3nnc(C(=O)Nc4ccncc4)c3C3CC3)c2)cc1 [Compound 7-318]
1000 to 3000 nM

API: value(readout=IC50, system=human MRGPRD (Homo sapiens, UniProt Q8TDS7)) for record O=C(Nc1ccncc1)c1nnn(-c2ccc(-c3ccc(F)cc3)cc2)c1C1CC1 [Compound 7-65]
100 to 500 nM

API: value(readout=IC50, system=human MRGPRD (Homo sapiens, UniProt Q8TDS7)) for record COc1ccc(-c2ccc(-n3nnc(C(=O)Nc4ccncc4)c3C3CC3)cc2)cc1 [Compound 7-27]
100 to 500 nM
